MIC reference
# Test system: Enterobacter cloacae
# Experiment notes: Minimum inhibitory concentration (MIC) against Enterobacter cloacae ATCC 35030
# Assay type: functional
# Condition parameters: Enterobacter cloacae, ATCC 35030; read-out: MIC
Write the value in µg/mL as a bare number.

• CN(CC(=O)O)NC(=O)C[C@H](N)CCCN = 4
• CN(CC(=O)O)NC(=O)C[C@H](N)CC1CC1N (stereo not given in full) = 128
• CN(CC(=O)O)NC(=O)CC(N)[C@H]1CC[C@@H](N)C1 (stereo not given in full) = 128

With those in mind, consider the next compound.
Problem: Find the measured MIC of CN(CC(=O)O)NC(=O)CC(N)C1CCC(N)CC1 (stereo not given) and report it.
Result: 128
